// values below are reported pEC50
- experimental system: SARS-Cov-1 nsp12:7L8:8 polymerase complex (Severe acute respiratory syndrome coronavirus)
- test method notes: biochemical
pEC50: −log10 of the molar value.

INSERT INTO results (compound, measured_quantity, obs_value) VALUES
  ('C[C@@]1(F)[C@H](O)[C@@H](COP(=O)(O)OP(=O)(O)OP(=O)(O)O)O[C@H]1n1cnc2c(=O)[nH]c(N)nc21', 'pEC50', '5.70 to 5.82');

--- query ---
// lookup pEC50 | system=SARS-Cov-1 nsp12:7L8:8 polymerase complex (Severe acute respiratory syndrome coronavirus) | key= C[C@@]1(F)[C@H](O)[C@@H](COP(=O)(O)OP(=O)(O)OP(=O)(O)O)O[C@H]1n1ccc(=O)[nH]c1=O [2′C-Me 2′F-UTP, reference compound]
4.40 to 4.70

---

- System: mock infected BHK cells
- test method notes: Cytotoxicity in mock infected BHK cells (MTT)
- Type: cell-based, hamster
- recorded conditions: Table 2B; MTT, 3 days
Parameter: CC50. Scope: all listed entries.

INSERT INTO measurements (compound, experimental_system, obs_value) VALUES
  ('CNc1nc(N)nc2c1ncn2[C@@H]1O[C@H](CO[P@](=O)(N[C@@H](C)C(=O)OC(C)C)Oc2ccccc2)[C@@H](O)[C@@]1(C)F [drawing 240]', 'mock infected BHK cells', '> 100 µM'),
  ('CC(C)[C@H](N)C(=O)O[C@@H]1[C@@H](CO)O[C@@H](n2ccc(N)nc2=O)[C@]1(C)O [drawing 245]', 'mock infected BHK cells', '> 100 µM'),
  ('CC(C)OC(=O)[C@H](C)N[P@](=O)(OCC1O[C@@H](n2ccc(=O)[nH]c2=O)[C@](C)(F)[C@@H]1O)Oc1ccccc1 (stereo partly drawn) [drawing 241]', 'mock infected BHK cells', '> 100 µM'),
  ('CNc1nc(N)nc2c1ncn2[C@@H]1O[C@H](CO[P@@](=O)(N[C@@H](C)C(=O)OC(C)C)Oc2ccccc2)[C@@H](O)[C@@]1(C)F [drawing 239]', 'mock infected BHK cells', '> 100 µM'),
  ('CC(C)(CO)C(=O)SCCOP(=O)(NCc1ccccc1)OC[C@H]1O[C@@H](n2cnc3c(=O)[nH]c(N)nc32)[C@](C)(O)[C@@H]1O (stereo partly drawn) [drawing 243]', 'mock infected BHK cells', '65 µM');

Kindly consider the entry below.
Can you look up the measured CC50 of CCC(CC)COC(=O)[C@H](C)N[P@](=O)(OC[C@H]1O[C@@](C#N)(c2ccc3c(N)ncnn23)[C@H](O)[C@@H]1O)Oc1ccccc1 [drawing 244] for me?
> 100 µM

---

- experimental system: nsp12 NiRAN active-site (Severe acute respiratory syndrome coronavirus)
- test method notes: biochemical
- Format: biochemical, SARS-CoV
- recorded conditions: IC50 of nsp8 labeling, competition with UTP (FIG. 13A)
measured quantity: IC50 (nM)
Give just the number in nM; leave the unit off.

INSERT INTO results (molecule, unit_symbol, obs_value) VALUES
  ('C[C@@]1(F)[C@H](O)[C@@H](COP(=O)(O)OP(=O)(O)OP(=O)(O)O)O[C@H]1n1cnc2c(=O)[nH]c(N)nc21 [AT-9010]', 'nM', 870);

Here is the next item to consider.
What value of IC50 has been recorded for this entry: C[C@@]1(F)[C@H](O)[C@@H](COP(=O)(O)OP(=O)(O)OP(=O)(O)O)O[C@H]1n1ccc(=O)[nH]c1=O [STP]
4600

---

CC50 at 3 days values, listed per item
- test method notes: Cytotoxicity in mock infected BHK cells (MTT)
- Format: cell-based, hamster
- recorded conditions: hamster, uninfected BHK-21 cells; BHK-21; Table 5
- Method: To determine the cytotoxicity, cells were seeded at an initial density of 1×10^6 cells/mL in 96 well plates containing Minimum Essential Medium with Earles's salts (MEM-E), L-glutamine, 1 mM sodium pyruvate and 25 mg/L kanamycin, supplemented with 10% fetal bovine serum. Cell cultures were then incubated at 37° C. in a humidified 5% CO2 atmosphere in the absence or presence of serial dilutions of test compounds. Cell viability was determined by the MTT method. […]

INSERT INTO results (compound, obs_value) VALUES
  ('CNc1nc(N)nc2c1ncn2[C@@H]1O[C@H](CO[P@@](=O)(N[C@@H](C)C(=O)OC(C)C)Oc2ccccc2)[C@@H](O)[C@@]1(C)F [Compound 1A]', '> 100 µM');

What measured CC50 at 3 days goes with CC(C)OC(=O)[C@H](C)N[P@](=O)(OC[C@H]1O[C@@H](n2ccc(=O)[nH]c2=O)[C@](C)(F)[C@@H]1O)Oc1ccccc1 [sofosbuvir, reference compound] ?
> 100 µM

---

- Tested on: mock infected MES-1 cells
- test method notes: Cytotoxicity in mock infected MES-1 cells (MTT)
- Type: cell-based
- recorded conditions: Table 3B, 3 days
measured quantity: CC50

Recorded CC50, per entry:
INSERT INTO results (compound, experimental_system, obs_value) VALUES
  ('CC(C)OC(=O)[C@H](C)N[P@](=O)(OCC1O[C@@H](n2ccc(=O)[nH]c2=O)[C@](C)(F)[C@@H]1O)Oc1ccccc1 (stereo partly drawn) [drawing 255]', 'mock infected MES-1 cells', '> 100 µM'),
  ('CNc1nc(N)nc2c1ncn2[C@@H]1O[C@H](CO[P@](=O)(N[C@@H](C)C(=O)OC(C)C)Oc2ccccc2)[C@@H](O)[C@@]1(C)F [drawing 254]', 'mock infected MES-1 cells', '> 100 µM');

Alright, here's another compound for you.
Which value of CC50 has been reported for CCC(CC)COC(=O)[C@H](C)N[P@](=O)(OC[C@H]1O[C@@](C#N)(c2ccc3c(N)ncnn23)[C@H](O)[C@@H]1O)Oc1ccccc1 [drawing 258] in the records?
> 100 µM

---

- test method notes: Cytotoxicity in mock infected BHK cells (MTT)
- Format: cell-based, hamster
- recorded conditions: hamster, mock infected BHK cells; Table 2A; MTT, 3 days
measured quantity: CC50 at 3 days

Entry under review: CNc1nc(N)nc2c1ncn2[C@@H]1O[C@H](CO[P@@](=O)(N[C@@H](C)C(=O)OC(C)C)Oc2ccccc2)[C@@H](O)[C@@]1(C)F [drawing 232] . Reported CC50 at 3 days?
> 100 µM

---

- System: SARS-CoV-2 strain BavPatl
- test method notes: Antiviral assay in HUH7.5 cells, viral RNA by RT-qPCR
- Assay type: cell-based
- recorded conditions: Severe acute respiratory syndrome coronavirus 2, Huh7.5, 48 h, 2 days
measured quantity: pEC50
// pEC50 is dimensionless: -log10 of concentration (M)

What measured pEC50 goes with CC(C)C(=O)OC[C@H]1O[C@@H](n2ccc(NO)nc2=O)[C@H](O)[C@@H]1O ?
5.77

---

- Tested on: human coronavirus alpha-229E
- test method notes: microbe, parasite or virus in culture
- Type: cell-based, HCoV-229E
- recorded conditions: read-out: Neutral Red Assay EC50
measured quantity: EC50 (µM)
Entry rule: numbers only, all in µM.

Which value of EC50 has been reported for CNc1nc(N)nc2c1ncn2[C@@H]1O[C@H](CO[P@@](=O)(N[C@@H](C)C(=O)OC(C)C)Oc2ccccc2)[C@@H](O)[C@@]1(C)F in the records?
1.6

---

- System: HUH 7.5 cells
measured quantity: CC50

Need CC50, item CNc1nc(N)nc2c1ncn2[C@@H]1O[C@H](COP(=O)(N[C@@H](C)C(=O)OC(C)C)Oc2ccccc2)[C@@H](O)[C@@]1(C)F (stereo partly shown)
> 20 µM

---

- Tested on: mock infected MES-1 cells
- test method notes: Cytotoxicity in mock infected MES-1 cells (MTT)
- Format: cell-based
- recorded conditions: Table 3B, 3 days
measured quantity: CC50

Known results for compounds:
INSERT INTO measurements (compound, measured_quantity, obs_value) VALUES
  ('CC(C)[C@H](N)C(=O)O[C@@H]1[C@@H](CO)O[C@@H](n2ccc(N)nc2=O)[C@]1(C)O [drawing 259]', 'CC50', '> 100 µM'),
  ('CC(C)(CO)C(=O)SCCOP(=O)(NCc1ccccc1)OC[C@H]1O[C@@H](n2cnc3c(=O)[nH]c(N)nc32)[C@](C)(O)[C@@H]1O (stereo partly drawn) [drawing 257]', 'CC50', '82 µM');

Moving on to the next compound.
// returns reported CC50 for input CNc1nc(N)nc2c1ncn2[C@@H]1O[C@H](CO[P@@](=O)(N[C@@H](C)C(=O)OC(C)C)Oc2ccccc2)[C@@H](O)[C@@]1(C)F [drawing 253]
> 100 µM

---

- Test system: HCoV
- test method notes: microbe, parasite or virus in culture
- Type: cell-based, human coronavirus
// values below are reported EC50
# unit: µM | format: bare number

INSERT INTO assay_data (molecule, measured_quantity, obs_value) VALUES
  ('CC(C)(CO)C(=O)SCCOP(=O)(NCc1ccccc1)OC[C@H]1O[C@@H](n2cnc3c(=O)[nH]c(N)nc32)[C@](C)(O)[C@@H]1O (some centres unmarked) [drawing 257]', 'EC50', 1.7),
  ('CNc1nc(N)nc2c1ncn2[C@@H]1O[C@H](CO[P@](=O)(N[C@@H](C)C(=O)OC(C)C)Oc2ccccc2)[C@@H](O)[C@@]1(C)F [drawing 254]', 'EC50', 2.2),
  ('CCC(CC)COC(=O)[C@H](C)N[P@](=O)(OC[C@H]1O[C@@](C#N)(c2ccc3c(N)ncnn23)[C@H](O)[C@@H]1O)Oc1ccccc1 [drawing 258]', 'EC50', 5.5);

Could you now consider this next molecule?
# input molecule: CNc1nc(N)nc2c1ncn2[C@@H]1O[C@H](CO[P@@](=O)(N[C@@H](C)C(=O)OC(C)C)Oc2ccccc2)[C@@H](O)[C@@]1(C)F [drawing 253] ; wanted: its EC50
2
